Biological target: human PD-L1 (human) (UniProt Q9NZQ7)
Sequence (Q9NZQ7 19-290): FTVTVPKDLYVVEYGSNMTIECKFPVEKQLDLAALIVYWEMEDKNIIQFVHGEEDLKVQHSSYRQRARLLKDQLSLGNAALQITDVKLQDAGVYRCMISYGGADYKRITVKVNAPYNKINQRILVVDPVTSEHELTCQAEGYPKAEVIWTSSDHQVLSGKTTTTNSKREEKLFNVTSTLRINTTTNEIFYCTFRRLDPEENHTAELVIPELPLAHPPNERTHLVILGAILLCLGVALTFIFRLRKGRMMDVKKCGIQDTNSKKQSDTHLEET
Test: flow cytometry, MFI on CHO/PD-L1 over MFI on Jurkat (CD28)
We begin with a simple list: items and their reported Ratio of PDL1:CD28.

Below, each entry is followed by its recorded Ratio of PDL1:CD28 result.
Lookup: Would you kindly share the measured Ratio of PDL1:CD28 for CD80 IgV-Fc H18Y/V22A/E35D/T41S/M47V/T62N/A71G/A91G (Fc fusion) VIHVTKEVKEVATLSCGYNVSAEELAQTRIYWQKDKKMVLSMMSGDVNIWPEYKNRTIFDINNNLSIVILGLRPSDEGTYECVVLKYEKDGFKREHLAEVTLSVKAD ?
Found: 5

Lookup: What does the record list as Ratio of PDL1:CD28 for CD80 IgV-Fc S15T/H18Y/E35D/M47V/T62A/N64S/A71G/L85Q/D90N (Fc fusion) VIHVTKEVKEVATLTCGYNVSVEELAQTRIYWQKDKKMVLTMMSGDVNIWPEYKNRTIFDIANSLSIVILGLRPSDEGTYECVVQKYEKNAFKREHLAEVTLSVKAD ?
Found: 13

New cases:
Lookup: For the binder CD80 IgV-Fc E35D/D46E/M47L/V68M/L85Q/F92L (Fc fusion) VIHVTKEVKEVATLSCGHNVSVEELAQTRIYWQKDKKMVLTMMSGELNIWPEYKNRTIFDITNNLSIMILALRPSDEGTYECVVQKYEKDALKREHLAEVTLSVKAD , what Ratio of PDL1:CD28 is on record?
Found: 863

Lookup: // returns reported Ratio of PDL1:CD28 for input CD80 IgV-Fc E35D/M47L/V68M/A71G/L85Q/D90G (Fc fusion) VIHVTKEVKEVATLSCGHNVSVEELAQTRIYWQKDKKMVLTMMSGDLNIWPEYKNRTIFDITNNLSIMILGLRPSDEGTYECVVQKYEKGAFKREHLAEVTLSVKAD
Found: 12

Lookup: What value of Ratio of PDL1:CD28 has been reported for the following binder? CD80 IgV-Fc H18Y/E35D/M47V/V68M/L85M (Fc fusion) VIHVTKEVKEVATLSCGYNVSVEELAQTRIYWQKDKKMVLTMMSGDVNIWPEYKNRTIFDITNNLSIMILALRPSDEGTYECVVMKYEKDAFKREHLAEVTLSVKAD
Found: 2.2
